- Format: in vivo, human
- particulars: hospitalised patients
measurement_name: Dose-corrected serum concentration, median

{"columns": ["compound", "result"],
 "data": [
  ["CN1CC[C@]23c4c5ccc(O)c4O[C@H]2C(=O)CC[C@@]3(O)[C@H]1C5", "2.2 nM × 100 mg 24 h^−1/dose 24 h^−1"],
  ["O=C1CC[C@@]2(O)[C@H]3Cc4ccc(O)c5c4[C@@]2(CCN3)[C@H]1O5", "29 nM × 100 mg 24 h^−1/dose 24 h^−1"],
  ["COc1ccc2c3c1O[C@H]1C(=O)CC[C@@]4(O)[C@@H](C2)NCC[C@]314", "161 nM × 100 mg 24 h^−1/dose 24 h^−1"],
  ["COc1ccc2c3c1O[C@H]1C(=O)CC[C@@]4(O)[C@@H](C2)N(C)CC[C@]314 [Oxycodone, oxycodone, reference compound]", "144 nM × 100 mg 24 h^−1/dose 24 h^−1"]
]}

====

Entries annotated with measured Uncorrected serum concentration, mean
- Assay type: in vivo, human
- particulars: hospitalised patients
measurement_name: Uncorrected serum concentration, mean (nM)

{"columns": ["compound", "recorded_number"],
 "data": [
  ["CN1CC[C@]23c4c5ccc(O)c4O[C@H]2C(=O)CC[C@@]3(O)[C@H]1C5", 2.6],
  ["O=C1CC[C@@]2(O)[C@H]3Cc4ccc(O)c5c4[C@@]2(CCN3)[C@H]1O5", 30],
  ["COc1ccc2c3c1O[C@H]1C(=O)CC[C@@]4(O)[C@@H](C2)N(C)CC[C@]314 [Oxycodone, oxycodone, reference compound]", 161],
  ["COc1ccc2c3c1O[C@H]1C(=O)CC[C@@]4(O)[C@@H](C2)NCC[C@]314", 209]
]}

====

- Assay type: in vivo, human
- particulars: hospitalised patients

{"columns": ["molecule", "Dose-corrected serum concentration, mean"],
 "data": [
  ["O=C1CC[C@@]2(O)[C@H]3Cc4ccc(O)c5c4[C@@]2(CCN3)[C@H]1O5", "34 nM × 100 mg 24 h^−1/dose 24 h^−1"],
  ["COc1ccc2c3c1O[C@H]1C(=O)CC[C@@]4(O)[C@@H](C2)N(C)CC[C@]314 [Oxycodone, oxycodone, reference compound]", "186 nM × 100 mg 24 h^−1/dose 24 h^−1"],
  ["CN1CC[C@]23c4c5ccc(O)c4O[C@H]2C(=O)CC[C@@]3(O)[C@H]1C5", "3.4 nM × 100 mg 24 h^−1/dose 24 h^−1"],
  ["COc1ccc2c3c1O[C@H]1C(=O)CC[C@@]4(O)[C@@H](C2)NCC[C@]314", "212 nM × 100 mg 24 h^−1/dose 24 h^−1"]
]}

====

- Type: in vivo, human
- particulars: hospitalised patients
Entries annotated with measured Dose-corrected serum concentration, 75th percentile
measurement_name: Dose-corrected serum concentration, 75th percentile

{"columns": ["molecule", "result"],
 "data": [
  ["O=C1CC[C@@]2(O)[C@H]3Cc4ccc(O)c5c4[C@@]2(CCN3)[C@H]1O5 [Noroxymorphone, noroxymorphone]", "44 nM × 100 mg 24 h^−1/dose 24 h^−1"],
  ["CN1CC[C@]23c4c5ccc(O)c4O[C@H]2C(=O)CC[C@@]3(O)[C@H]1C5 [Oxymorphone, oxymorphone]", "4.2 nM × 100 mg 24 h^−1/dose 24 h^−1"],
  ["COc1ccc2c3c1O[C@H]1C(=O)CC[C@@]4(O)[C@@H](C2)NCC[C@]314 [Noroxycodone, noroxycodone]", "261 nM × 100 mg 24 h^−1/dose 24 h^−1"],
  ["COc1ccc2c3c1O[C@H]1C(=O)CC[C@@]4(O)[C@@H](C2)N(C)CC[C@]314 [Oxycodone, oxycodone, reference compound]", "225 nM × 100 mg 24 h^−1/dose 24 h^−1"]
]}

====

Entries annotated with measured Uncorrected serum concentration, 75th percentile
- Type: in vivo, human
- particulars: hospitalised patients
measurement_name: Uncorrected serum concentration, 75th percentile (nM)

{"columns": ["molecule", "value_units", "recorded_number"],
 "data": [
  ["COc1ccc2c3c1O[C@H]1C(=O)CC[C@@]4(O)[C@@H](C2)NCC[C@]314 [Noroxycodone, noroxycodone]", "nM", 211],
  ["COc1ccc2c3c1O[C@H]1C(=O)CC[C@@]4(O)[C@@H](C2)N(C)CC[C@]314 [Oxycodone, oxycodone, reference compound]", "nM", 201],
  ["CN1CC[C@]23c4c5ccc(O)c4O[C@H]2C(=O)CC[C@@]3(O)[C@H]1C5 [Oxymorphone, oxymorphone]", "nM", 3.2],
  ["O=C1CC[C@@]2(O)[C@H]3Cc4ccc(O)c5c4[C@@]2(CCN3)[C@H]1O5 [Noroxymorphone, noroxymorphone]", "nM", 39]
]}

====

- Format: in vivo, human
- particulars: hospitalised patients, oral oxycodone, trough sample
Entries annotated with measured Uncorrected serum concentration, median

{"columns": ["compound", "Uncorrected serum concentration, median"],
 "data": [
  ["COc1ccc2c3c1O[C@H]1C(=O)CC[C@@]4(O)[C@@H](C2)N(C)CC[C@]314 [Oxycodone, oxycodone, reference compound]", "97 nM"],
  ["O=C1CC[C@@]2(O)[C@H]3Cc4ccc(O)c5c4[C@@]2(CCN3)[C@H]1O5", "17 nM"],
  ["COc1ccc2c3c1O[C@H]1C(=O)CC[C@@]4(O)[C@@H](C2)NCC[C@]314", "101 nM"],
  ["CN1CC[C@]23c4c5ccc(O)c4O[C@H]2C(=O)CC[C@@]3(O)[C@H]1C5", "1.5 nM"]
]}

====

- Assay type: in vivo, human
- particulars: hospitalised patients
measurement_name: Dose-corrected serum concentration, minimum to maximum

{"columns": ["molecule", "result"],
 "data": [
  ["O=C1CC[C@@]2(O)[C@H]3Cc4ccc(O)c5c4[C@@]2(CCN3)[C@H]1O5", "0–360 nM × 100 mg 24 h^−1/dose 24 h^−1"],
  ["COc1ccc2c3c1O[C@H]1C(=O)CC[C@@]4(O)[C@@H](C2)N(C)CC[C@]314 [Oxycodone, oxycodone, reference compound]", "0–1,294 nM × 100 mg 24 h^−1/dose 24 h^−1"],
  ["COc1ccc2c3c1O[C@H]1C(=O)CC[C@@]4(O)[C@@H](C2)NCC[C@]314", "0–3,032 nM × 100 mg 24 h^−1/dose 24 h^−1"],
  ["CN1CC[C@]23c4c5ccc(O)c4O[C@H]2C(=O)CC[C@@]3(O)[C@H]1C5", "0–34 nM × 100 mg 24 h^−1/dose 24 h^−1"]
]}

====

- Type: in vivo, human
- particulars: hospitalised patients
measurement_name: Dose-corrected serum concentration, 25th percentile

{"columns": ["molecule", "result"],
 "data": [
  ["O=C1CC[C@@]2(O)[C@H]3Cc4ccc(O)c5c4[C@@]2(CCN3)[C@H]1O5", "18 nM × 100 mg 24 h^−1/dose 24 h^−1"],
  ["CN1CC[C@]23c4c5ccc(O)c4O[C@H]2C(=O)CC[C@@]3(O)[C@H]1C5", "1.2 nM × 100 mg 24 h^−1/dose 24 h^−1"],
  ["COc1ccc2c3c1O[C@H]1C(=O)CC[C@@]4(O)[C@@H](C2)N(C)CC[C@]314 [Oxycodone, oxycodone, reference compound]", "90 nM × 100 mg 24 h^−1/dose 24 h^−1"],
  ["COc1ccc2c3c1O[C@H]1C(=O)CC[C@@]4(O)[C@@H](C2)NCC[C@]314", "103 nM × 100 mg 24 h^−1/dose 24 h^−1"]
]}

====

- Type: in vivo, human
- particulars: hospitalised patients
measurement_name: Uncorrected serum concentration, 25th percentile (nM)

{"columns": ["compound", "value_units", "recorded_number"],
 "data": [
  ["CN1CC[C@]23c4c5ccc(O)c4O[C@H]2C(=O)CC[C@@]3(O)[C@H]1C5", "nM", 0.7],
  ["COc1ccc2c3c1O[C@H]1C(=O)CC[C@@]4(O)[C@@H](C2)NCC[C@]314", "nM", 44],
  ["COc1ccc2c3c1O[C@H]1C(=O)CC[C@@]4(O)[C@@H](C2)N(C)CC[C@]314 [Oxycodone, oxycodone, reference compound]", "nM", 43],
  ["O=C1CC[C@@]2(O)[C@H]3Cc4ccc(O)c5c4[C@@]2(CCN3)[C@H]1O5", "nM", 8]
]}

====

- Assay type: in vivo, human
- particulars: partly different from Table 3
Entries annotated with measured Serum concentration, range

{"columns": ["molecule", "Serum concentration, range"],
 "data": [
  ["O=C1CC[C@@]2(O)[C@H]3Cc4ccc(O)c5c4[C@@]2(CCN3)[C@H]1O5 [Noroxymorphone, noroxymorphone]", "0 to 509 nM"],
  ["COc1ccc2c3c1O[C@H]1C(=O)CC[C@@]4(O)[C@@H](C2)N(C)CC[C@]314 [Oxycodone, oxycodone, reference compound]", "0 to 1,890 nM"],
  ["COc1ccc2c3c1O[C@H]1C(=O)CC[C@@]4(O)[C@@H](C2)NCC[C@]314 [Noroxycodone, noroxycodone]", "0 to 4,858 nM"],
  ["CN1CC[C@]23c4c5ccc(O)c4O[C@H]2C(=O)CC[C@@]3(O)[C@H]1C5 [Oxymorphone, oxymorphone]", "0 to 27 nM"]
]}
